Listing of recorded Neut IC50 subtype A by entry.
Biological target: RSV F protein of recombinant mKate-RSV, subtype A (strain A2) (Respiratory syncytial virus subtype A …, UniProt P03420 26-574)
Assay: cell-based or functional assay
Kindly answer with a numeric value in µg/mL, unit omitted.

The examples below pair each entry with its known result.
{"columns": ["BINDER", "METRIC", "RESULT_NUMBER"],
 "data": [
  ["ADI-14455 (antibody, V domains shown) VH: QVQLVQSGAEVKKPGASVKVSCKASGYTFTSYGTSWVRQAPGQGLEWMGWISAYNGNTNYAQNLQGRVTMTTDTSTSTSYMELRSLRSDDTAVYYCARDVPVIAAGTMDYWGQGTLVTVSS VL: DIVMTQTPLSLPVTLGQPASISCRSSQSLVYSDGNTYLNWFQQRPGQSPRRLIYKVSNRDSGVPDRFSGSGSGTDFTLKISRVEAEDVGVYYCMQGPHWPRTFGQGTKVEIK", "Neut IC50 subtype A", 0.012],
  ["ADI-14490 (antibody, V domains shown) VH: QVQLVQSGGGVVQPGRSLRLSCAASGFTFSNYGMHWVRQAPGKGLEWVAVIWYDGSNKYYADSVKGRFTISRDNSKNTVYLQMNSLRADDTAVYYCARDAIFGSGPNWFDPWGQGTLVTVSS VL: QSVLTQPPSVSGAPGQRVTISCTGSSSNIGAGYDVHWYQQLPGTAPKLLIYGSSNRPSGVPDRFSGSKSGTSASLAITGLQAEDEADYYCQSYESSLRGWVFGGGTKVTVL", "Neut IC50 subtype A", 1.02]
]}

Now look at this entry.
Can you look up the measured Neut IC50 subtype A of ADI-14520 (antibody, V domains shown) VH: QVQLQQWGAGLVKPSETLSLTCAVYGGSFSGYQWHWFRQPPGKGLEWIGEINHSEITHYNASLKSRVTLSIDTSKNQFSLNLTSVTAADTAVYYCARASSGSYNFEYWFDPWGQGTLVTVSS VL: QSVLTQPPSVSVAPGKTAWLTCGGNNIGSKRVHWYRQKPGQAPVLVVYDDYDRPSGTPERVSGSNSGNTATLTISRVEDGDEGDYYCQVWDDPSDHAVFGGGTKLTVL for me?
0.029
